Provide the recorded cAMP Rel EC50 (1% HSA) for the entries that follow.
system_name: human glucagon receptor (human) (UniProt P47871)
Sequence (P47871 26-477): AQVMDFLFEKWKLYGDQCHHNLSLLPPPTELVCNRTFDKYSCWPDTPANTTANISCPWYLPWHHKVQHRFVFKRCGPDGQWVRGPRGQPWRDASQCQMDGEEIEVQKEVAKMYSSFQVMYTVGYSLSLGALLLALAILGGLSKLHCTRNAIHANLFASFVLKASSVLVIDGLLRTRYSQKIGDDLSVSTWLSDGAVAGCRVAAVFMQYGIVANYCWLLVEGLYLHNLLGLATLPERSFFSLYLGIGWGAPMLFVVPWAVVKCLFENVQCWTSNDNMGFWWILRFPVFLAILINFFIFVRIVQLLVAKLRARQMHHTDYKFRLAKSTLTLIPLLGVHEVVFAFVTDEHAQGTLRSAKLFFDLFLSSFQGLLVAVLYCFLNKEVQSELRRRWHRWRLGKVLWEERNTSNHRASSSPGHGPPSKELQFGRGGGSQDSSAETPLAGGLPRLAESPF
test_method_notes: cell-based or functional assay
Non-standard residues stand in square brackets, D forms with d. No end group written: not given here. NMeY = CN[C@@H](Cc1ccc(O)cc1)C(=O)O; αMeF = C[C@](N)(Cc1ccccc1)C(=O)O; Aib = CC(C)(N)C(=O)O
Express your answer in µM, writing the number without its unit.

// YXQGTFTSDXSKXLDKKAQXAFIEYLIEXGPSSGAPPPSGSEEE (Aib, 4Pal, αMeL, AEEA-γGlu-C18 diacid on Lys, amide; synthetic construct; SITE 2: note = 2-Aminoisobutyric Acid; SITE 10: note = 3-(4-Pyridyl)-L-alanine; SITE 13: note = alpha-methyl-leucine; SITE 17: note = Lysine is chemically modified through conjugation of the epsilon-amino group of the Lysine side chain with (2-[2-(2-Amino-ethoxy)-ethoxy]-acetyl)) [Example 903] : cAMP Rel EC50 (1% HSA) value = 1.63

Reported cAMP Rel EC50 (1% HSA) ( YXQGTXTSDXSIXLDXKAQXXFIEXLIEGGPSSGEPPPSGE (synthetic construct; SITE 2: note = 2-Aminoisobutyric Acid; SITE 6: note = alpha-methyl-2-fluoro-L-phenylalanine; SITE 10: note = 3-(4-Pyridyl)-L-alanine; SITE 13: note = alpha-methyl-leucine; SITE 16: note = L-ornithine; SITE 17: note = Lysine is chemically modified through conjugation of the epsil) [Example 682] ) = 0.127

Reported cAMP Rel EC50 (1% HSA) ( [NMeY][Aib]QGT[αMeF]TSDYSILLDKIAAKAFIEYLIEGGPSSGEPPPSEG-NH2 (not fully specified (residue 20)) [Example 299] ) = 1.7

Looking up YXQGTFTSDXSKXLDKKAQXAFIEYLIEXGPSSGAPPPSGSEE (non-natural residues, C-terminal amide, acylated Lys with fatty diacid; synthetic construct; SITE 2: note = 2-Aminoisobutyric Acid; SITE 10: note = 3-(4-Pyridyl)-L-alanine; SITE 13: note = alpha-methyl-leucine; SITE 17: note = Lysine is chemically modified through conjugation of the epsilon-amino group of the Lysine side chain with (2-[2-(2-Amino-ethoxy)-ethoxy]-acetyl)) [Example 902] , I found its cAMP Rel EC50 (1% HSA) recorded as 1.36

cAMP Rel EC50 (1% HSA) reading for YXQGTXTSDXXIXLDXKAQXXFIEXLIEGGPSSGEPPPEGE (synthetic construct; SITE 2: note = 2-Aminoisobutyric Acid; SITE 6: note = alpha-methyl-2-fluoro-L-phenylalanine; SITE 10: note = 3-(4-Pyridyl)-L-alanine; SITE 11: note = alpha-methyl-L-serine; SITE 13: note = alpha-methyl-leucine; SITE 16: note = L-ornithine; SITE 17: note = Lysine is chemically mo) [Example 698] : 0.124

All figures here come from patent US20240270821A1.
